test: Inhibition of rat human chimera TRPV1 channel expressed in CHO cells; assay type: cell-based
Measured attribute: IC50 (nM)

Consider the reported IC50 for these compounds:
Item under review: CN(C(=O)/C=C/c1ccc(C(C)(C)C)cc1)c1ccc2c(c1)OCCO2 . Reported IC50? 19400

Similarly, O=C(C=C(c1ccc(Br)cc1)c1ccc(Br)cc1)Nc1ccc2c(c1)OCCO2 ? 61

Same read-out for CCC(C)(C)c1ccc(/C=C/C(=O)Nc2ccc3c(c2)OCCO3)cc1 ? 48

I. CC(C)(C)c1ccc(CCC(=O)Nc2ccc3c(c2)OCCO3)cc1
II. O=C(/C=C/c1ccc(C(F)(F)F)nc1N1CCCCC1)Nc1ccc2cccnc2c1
Look at I and II . Which one has the lower recorded IC50 number? // respond with label for picked entry II

---

assay: Inhibition of rat human chimera TRPV1 channel expressed in CHO cells; assay type: cell-based
Measured attribute: pIC50

May I ask what pIC50 has been recorded for O=C(/C=C/c1ccc(Br)cc1)Nc1ccc2c(c1)OCCO2 ? 6.47

O=C(/C=C/c1ccc2ccccc2c1)Nc1ccc2c(c1)OCCO2 , same question. 6.13

Another: CC(C)(C)c1ccc(/C=C/C(=O)Nc2ccc3c(c2)O[C@H](CO)CO3)cc1 6.66

And then Cc1ccc(/C(=C/C(=O)Nc2ccc3c(c2)OCCO3)c2ccc(C(C)(C)C)cc2)cc1 , what is it? 7.03

What about CC(C)(C)c1ccc(/C(=C/C(=O)Nc2ccc3c(c2)OCCO3)c2ccncc2)cc1 ? 6.92

# iterate: CC(C)(C)c1ccc(C(=O)CC(=O)Nc2ccc3c(c2)OCCO3)cc1 6.23

Repeat with CC(C)(C)c1ccc(/C=C/C(=O)Nc2ccc3c(c2)OC[C@@H](CN)O3)cc1 5.9

Consider next the molecule CC(C)(C)c1ccc(/C=C/C(=O)Nc2ccc3c(c2)OC[C@@H](COCC2CC2)O3)cc1 in the same way. 6.48

Similarly, O=C(/C=C/c1ccc(C(F)(F)F)nc1)Nc1ccc2c(c1)OCCO2 ? 5.97

Check COc1ccccc1/C(=C/C(=O)Nc1ccc2c(c1)OCCO2)c1ccc(C(C)(C)C)cc1 too. 6.82

Can you check CC(C)(C)c1ccc(/C(=C/C(=O)Nc2ccc3c(c2)OCCO3)Cc2ccccc2)cc1 next? 7.69

And then O=C(/C=C/c1cccc2ccccc12)Nc1ccc2c(c1)OCCO2 , what is it? 6.19

Similarly, COc1cccc(/C(=C/C(=O)Nc2ccc3c(c2)OCCO3)c2ccc(C(C)(C)C)cc2)c1 ? 6.81

And for CC(C)(C)c1ccc(/C=C/C(=S)Nc2ccc3c(c2)OCCO3)cc1 ? 6.41

---

assay: Inhibition of rat human chimera TRPV1 channel expressed in CHO cells; format: cell-based
pIC50: −log10 of the molar value.
Each record here notes measured pIC50.

Sample records with pIC50:
Recorded pIC50 of COc1cc(/C=C/C(=O)Nc2ccc3c(c2)OCCO3)cc(OC)c1OC , please. < 4.40

Now consider O=C(/C=C/c1ccc(O)cc1)Nc1ccc2c(c1)OCCO2 and answer again. < 4.40

Let us examine a further case.
Fill in the blank: the reported pIC50 of O=C(/C=C/c1ccc(-c2ccccc2)cc1)Nc1ccc2c(c1)OCCO2 is ____. < 4.40

---

test: Inhibition of rat human chimera TRPV1 channel expressed in CHO cells; format: cell-based
Measured attribute: IC50 (µM)

Consider the reported IC50 for these compounds:
Which IC50 is listed for CC(C)(C)c1ccc(/C=C/C(=O)Nc2ccc3oc(=O)cnc3c2)cc1 ? 0.018

What do you get for Cc1ccc(/C=C/C(=O)Nc2ccc3c(c2)OCCO3)cc1C ? 0.455

A. CC(C)(C)c1ccc(/C=C/C(=O)Nc2ccc3c(c2)CCCC3)cc1
B. O=C(/C=C/c1ccc(Br)cc1)Nc1ccc2c(c1)OCCO2
Pick one: A or B . Which one has the lower reported IC50? Selection: enter the item's label. A

Where do the numbers come from? From ChEMBL document CHEMBL1138244.
